# Measured on: human HER2 (23-652) (Homo sapiens)
# Protocol summary: Surface plasmon resonance (SPR) for assessment of peptide affinity, human HER2
# Assay type: binding
# Design: towards human HER2 (23-652) and mouse HER2 (23-653); made in house
# Settings: SPR, human HER2 extracellular domain, 25° C., 1:1 binding model; read-out: huHER2-SPR-ONC KD
Positions of bridges follow the written chain, without caps; N, C: chain ends. Non-standard residues stand in square brackets, D forms with d. Residues, ends and D or L forms follow the SMILES beside them. Trp(5-OH) = N[C@@H](Cc1c[nH]c2ccc(O)cc12)C(=O)O; NMePhe(4-F) = CN[C@@H](Cc1ccc(F)cc1)C(=O)O; NMehPhe = CN[C@@H](CCc1ccccc1)C(=O)O; Aad = N[C@@H](CCCC(=O)O)C(=O)O; Gly(cPr) = N[C@H](C(=O)O)C1CC1; Aoc(2) = CCCCCC[C@H](N)C(=O)O; NMeK = CN[C@@H](CCCCN)C(=O)O; NMeDap = CN[C@@H](CN)C(=O)O
Property label: Kd

Compound: CC(=O)NCCCC[C@H]1C(=O)N[C@@H](Cc2c[nH]c3ccc(O)cc23)C(=O)N[C@H](Cc2c[nH]c3ccccc23)C(=O)N[C@@H](C2CC2)C(=O)N(C)[C@H](C(=O)N(C)[C@@H](Cc2ccc(F)cc2)C(=O)N[C@@H](CCCCNC(=O)CN2CCN(CC(=O)O)CCN(CC(=O)O)CCN(CC(=O)O)CC2)C(N)=O)CNC(=O)CCC[C@H](NC(C)=O)C(=O)N[C@@H](Cc2ccc(O)cc2)C(=O)N[C@@H](CO)C(=O)N(C)[C@@H](CCc2ccccc2)C(=O)N1C [Example C31]
Result: > 6 µM
//
Compound: CC(=O)N[C@H]1CCCC(=O)NC[C@@H](C(=O)N(C)[C@@H](Cc2ccc(F)cc2)C(=O)N[C@@H](CCCCNC(=O)CN2CCN(CC(=O)O)CCN(CC(=O)O)CCN(CC(=O)O)CC2)C(N)=O)N(C)C(=O)[C@H](C2CC2)NC(=O)[C@H](Cc2c[nH]c3ccccc23)NC(=O)[C@H](Cc2c[nH]c3ccc(O)cc23)NC(=O)[C@H](CCCCNC(=O)CO)N(C)C(=O)[C@H](CCc2ccccc2)N(C)C(=O)[C@H](CO)NC(=O)[C@H](Cc2ccc(O)cc2)NC1=O
Result: < 0.0001 µM

Turning to the following compound.
Query: Give recorded Kd. CCCCCC[C@@H]1NC(=O)[C@H](Cc2c[nH]c3ccc(O)cc23)NC(=O)[C@H](CCCCNC(C)=O)N(C)C(=O)[C@H](CCc2ccccc2)N(C)C(=O)[C@H](CO)NC(=O)[C@H](Cc2ccc(O)cc2)NC(=O)[C@@H](NC(C)=O)CCCC(=O)NC[C@@H](C(=O)N(C)[C@@H](Cc2ccc(F)cc2)C(N)=O)N(C)C(=O)[C@H](C2CC2)NC1=O [Example A18] (Ac-[Aad]YS[NMehPhe][NMeK](Ac)[Trp(5-OH)][Aoc(2)][Gly(cPr)][NMeDap][NMePhe(4-F)]-NH2; lactam 1-9)
Result: > 6 µM

----------
# Measured on: human HER2 (23-652) (Homo sapiens, UniProt P04626)
# Sequence (P04626 23-652): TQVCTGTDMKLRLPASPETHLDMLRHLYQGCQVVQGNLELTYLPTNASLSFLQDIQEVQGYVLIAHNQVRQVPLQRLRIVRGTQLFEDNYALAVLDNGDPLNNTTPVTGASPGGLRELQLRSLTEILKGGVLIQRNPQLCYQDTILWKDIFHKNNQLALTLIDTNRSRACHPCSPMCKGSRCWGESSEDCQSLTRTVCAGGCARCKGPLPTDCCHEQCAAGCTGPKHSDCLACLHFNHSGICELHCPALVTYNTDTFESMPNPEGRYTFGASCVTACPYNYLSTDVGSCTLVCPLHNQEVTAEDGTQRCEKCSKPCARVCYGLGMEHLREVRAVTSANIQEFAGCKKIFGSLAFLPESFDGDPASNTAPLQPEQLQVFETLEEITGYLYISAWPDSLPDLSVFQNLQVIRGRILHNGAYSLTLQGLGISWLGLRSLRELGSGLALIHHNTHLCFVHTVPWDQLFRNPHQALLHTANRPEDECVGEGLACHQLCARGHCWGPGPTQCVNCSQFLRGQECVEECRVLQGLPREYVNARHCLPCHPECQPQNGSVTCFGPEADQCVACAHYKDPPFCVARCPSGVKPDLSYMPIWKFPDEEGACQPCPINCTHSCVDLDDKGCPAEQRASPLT
# Protocol summary: Surface plasmon resonance (SPR) for assessment of peptide affinity, human HER2
# Type: binding
# Parameters: towards human HER2 (23-652) and mouse HER2 (23-653); made in house
# Settings: SPR, human HER2 extracellular domain, 25° C., 1:1 binding model; read-out: huHER2-SPR-ONC KD
Positions of bridges follow the written chain, without caps; N, C: chain ends. Non-standard residues stand in square brackets, D forms with d. Residues, ends and D or L forms follow the SMILES beside them. Trp(5-OH) = N[C@@H](Cc1c[nH]c2ccc(O)cc12)C(=O)O; NMePhe(4-F) = CN[C@@H](Cc1ccc(F)cc1)C(=O)O; NMehPhe = CN[C@@H](CCc1ccccc1)C(=O)O; Aad = N[C@@H](CCCC(=O)O)C(=O)O; Gly(cPr) = N[C@H](C(=O)O)C1CC1; Ahp(2) = CCCCC[C@H](N)C(=O)O; NMeK = CN[C@@H](CCCCN)C(=O)O; NMeDap = CN[C@@H](CN)C(=O)O
Property label: Kd

Worked set:
Compound: CCCCC[C@@H]1NC(=O)[C@H](Cc2c[nH]c3ccc(O)cc23)NC(=O)[C@H](CCCCNC(C)=O)N(C)C(=O)[C@H](CCc2ccccc2)N(C)C(=O)[C@H](CO)NC(=O)[C@H](Cc2ccc(O)cc2)NC(=O)[C@@H](NC(C)=O)CCCC(=O)NC[C@@H](C(=O)N(C)[C@@H](Cc2ccc(F)cc2)C(N)=O)N(C)C(=O)[C@H](C2CC2)NC1=O [Example A17] (Ac-[Aad]YS[NMehPhe][NMeK](Ac)[Trp(5-OH)][Ahp(2)][Gly(cPr)][NMeDap][NMePhe(4-F)]-NH2; lactam 1-9)
Result: > 6000 nM

Compound: CC(=O)NCCCC[C@H]1C(=O)N[C@@H](Cc2c[nH]c3ccc(O)cc23)C(=O)N[C@@H](Cc2c[nH]c3ccccc23)C(=O)N[C@@H](C2CC2)C(=O)N(C)[C@H](C(=O)N(C)[C@@H](Cc2ccc(F)cc2)C(=O)N[C@@H](CCCCNC(=O)CN2CCN(CC(=O)O)CCN(CC(=O)O)CCN(CC(=O)O)CC2)C(N)=O)CNC(=O)CCC[C@H](NC(=O)CO)C(=O)N[C@@H](Cc2ccc(O)cc2)C(=O)N[C@@H](CO)C(=O)N(C)[C@@H](CCc2ccccc2)C(=O)N1C [Example C15]
Result: < 0.1 nM

Query: Give Kd for CC(=O)NCCCC[C@H]1C(=O)N[C@@H](Cc2c[nH]c3ccc(O)cc23)C(=O)N[C@@H](Cc2c[nH]c3ccccc23)C(=O)N[C@@H](C2CC2)C(=O)N(C)[C@H](C(=O)N(C)[C@@H](Cc2ccc(F)cc2)C(=O)N[C@@H](CCCCNC(=O)CCC(C(=O)O)N2CCN(CC(=O)O)CCN(CC(=O)O)CC2)C(N)=O)CNC(=O)CCC[C@H](NC(C)=O)C(=O)N[C@@H](Cc2ccc(O)cc2)C(=O)N[C@@H](CO)C(=O)N(C)[C@@H](CCc2ccccc2)C(=O)N1C (single isomer, unassigned) [Example C35] tested on human HER2 (23-652) (Homo sapiens, UniProt P04626).
Result: < 0.1 nM
